Every entry's value here was drawn from patent US7160874B2.

assayed target: integrin α4β7 (Homo sapiens, UniProt P13612+P26010)
Construct: lymphoma cell strain RPMI-8866 of human B cells, known to express integrin α4β7; endogenous in cells; host or cells: RPMI-8866 (human B lymphoma cell line)
Sequence (P13612 34-1032): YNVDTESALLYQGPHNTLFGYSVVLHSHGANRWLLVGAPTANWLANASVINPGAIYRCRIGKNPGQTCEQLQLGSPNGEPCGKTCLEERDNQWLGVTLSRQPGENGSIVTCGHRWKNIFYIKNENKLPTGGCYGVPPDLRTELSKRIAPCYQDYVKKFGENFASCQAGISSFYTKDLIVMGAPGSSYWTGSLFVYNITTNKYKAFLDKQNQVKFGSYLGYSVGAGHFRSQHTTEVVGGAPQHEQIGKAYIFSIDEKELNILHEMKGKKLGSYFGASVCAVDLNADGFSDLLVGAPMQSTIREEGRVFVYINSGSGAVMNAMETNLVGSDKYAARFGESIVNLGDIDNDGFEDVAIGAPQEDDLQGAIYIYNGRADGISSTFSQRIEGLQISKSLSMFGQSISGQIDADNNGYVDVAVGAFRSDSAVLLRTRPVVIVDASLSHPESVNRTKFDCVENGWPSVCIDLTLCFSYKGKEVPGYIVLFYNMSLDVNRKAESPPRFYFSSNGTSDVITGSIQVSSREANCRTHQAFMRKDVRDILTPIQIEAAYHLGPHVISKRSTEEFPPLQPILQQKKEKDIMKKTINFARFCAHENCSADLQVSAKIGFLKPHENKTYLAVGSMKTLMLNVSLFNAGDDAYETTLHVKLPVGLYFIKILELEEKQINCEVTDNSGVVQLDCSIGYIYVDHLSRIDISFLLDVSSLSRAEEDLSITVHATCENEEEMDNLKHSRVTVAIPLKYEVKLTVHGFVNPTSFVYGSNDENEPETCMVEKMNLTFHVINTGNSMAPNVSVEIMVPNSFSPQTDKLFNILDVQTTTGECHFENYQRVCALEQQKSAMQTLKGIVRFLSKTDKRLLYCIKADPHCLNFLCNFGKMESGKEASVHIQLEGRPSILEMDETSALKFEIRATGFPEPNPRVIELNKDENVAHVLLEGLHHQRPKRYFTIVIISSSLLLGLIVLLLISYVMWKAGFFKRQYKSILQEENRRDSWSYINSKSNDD
Sequence (P26010 20-798): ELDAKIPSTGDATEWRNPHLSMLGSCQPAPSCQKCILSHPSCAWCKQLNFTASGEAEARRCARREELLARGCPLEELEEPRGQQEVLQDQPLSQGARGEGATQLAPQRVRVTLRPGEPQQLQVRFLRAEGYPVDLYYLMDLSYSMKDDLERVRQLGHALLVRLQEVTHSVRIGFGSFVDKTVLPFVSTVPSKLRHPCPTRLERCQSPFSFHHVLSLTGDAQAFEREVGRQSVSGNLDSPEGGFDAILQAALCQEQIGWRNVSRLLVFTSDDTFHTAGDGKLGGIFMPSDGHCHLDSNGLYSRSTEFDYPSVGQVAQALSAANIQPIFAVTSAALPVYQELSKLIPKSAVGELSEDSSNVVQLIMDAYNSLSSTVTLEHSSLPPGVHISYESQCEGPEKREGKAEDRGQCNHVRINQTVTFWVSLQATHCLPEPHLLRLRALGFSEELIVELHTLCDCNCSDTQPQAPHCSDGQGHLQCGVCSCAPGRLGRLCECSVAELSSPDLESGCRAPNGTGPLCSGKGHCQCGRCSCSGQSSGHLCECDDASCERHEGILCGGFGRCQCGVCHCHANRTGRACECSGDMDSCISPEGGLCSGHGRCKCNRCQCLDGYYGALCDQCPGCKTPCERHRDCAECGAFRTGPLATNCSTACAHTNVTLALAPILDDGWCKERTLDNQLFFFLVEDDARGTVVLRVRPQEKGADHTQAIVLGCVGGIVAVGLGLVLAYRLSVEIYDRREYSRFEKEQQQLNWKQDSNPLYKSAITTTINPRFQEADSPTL
measurement description: VCAM antagonistic activity (VCAM-1/α4β7 binding assay)
Format: cell-based
pIC50: −log10 of the molar value.
value type: pIC50

Note down pIC50 recorded for CCC(CC)(C(=O)N[C@@H](Cc1ccc(OCc2c(Cl)cccc2Cl)cc1)C(=O)O)C(=O)N1CC(Br)C(Br)C1 (stereo partly shown) [Example 79] > 7.70
